MEASURED TARGET: M1-type muscarinic cholinergic receptor (Rattus norvegicus, UniProt P08482)
Sequence (P08482 1-460): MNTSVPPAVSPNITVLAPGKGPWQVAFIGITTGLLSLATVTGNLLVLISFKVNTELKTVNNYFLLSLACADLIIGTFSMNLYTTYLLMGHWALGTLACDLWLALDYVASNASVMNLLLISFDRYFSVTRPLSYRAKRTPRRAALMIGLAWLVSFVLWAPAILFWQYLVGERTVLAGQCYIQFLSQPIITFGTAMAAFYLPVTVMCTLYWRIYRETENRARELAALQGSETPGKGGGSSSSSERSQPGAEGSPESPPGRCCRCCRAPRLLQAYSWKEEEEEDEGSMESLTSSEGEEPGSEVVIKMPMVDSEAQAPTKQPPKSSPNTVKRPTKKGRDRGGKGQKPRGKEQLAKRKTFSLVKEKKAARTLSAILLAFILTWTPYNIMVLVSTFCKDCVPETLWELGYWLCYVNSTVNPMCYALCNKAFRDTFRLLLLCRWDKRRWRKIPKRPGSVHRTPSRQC
pIC50: −log10 of the molar value. Counter-ions that a name gives are not always drawn.
Entries annotated with measured pIC50
ASSAY METRIC: pIC50

{"COMPOUND": "CCN(CC)CCNc1cc2c(nn1)-c1cc(N)ccc1CCC2 [SR 95776 A, dihydrochloride]", "ASSAY METRIC": "pIC50", "ENDPOINT RESULT": 6.70}
{"COMPOUND": "c1ccc2c(c1)CCCc1cc(NCCN3CCCC3)nnc1-2 [SR 95883 A]", "ASSAY METRIC": "pIC50", "ENDPOINT RESULT": 6.89}
{"COMPOUND": "CCN(CC)CCSc1cc2c(nn1)-c1ccccc1CC2.Cl [SR 95743 A, hydrochloride]", "ASSAY METRIC": "pIC50", "ENDPOINT RESULT": 6.15}
{"COMPOUND": "CCN(CC)CCNc1cc2c(nn1)-c1cc(Cl)c(Cl)cc1CCC2.Cl.Cl [SR 44695 A, dihydrochloride]", "ASSAY METRIC": "pIC50", "ENDPOINT RESULT": 6.35}
{"COMPOUND": "CN(C)CCNc1cc2c(nn1)-c1cc([N+](=O)[O-])ccc1CCC2 [SR 44681 A]", "ASSAY METRIC": "pIC50", "ENDPOINT RESULT": 6.59}
{"COMPOUND": "CCN(CC)CCSc1cc2c(nn1)-c1ccccc1CCC2 [SR 95820 A, hydrochloride]", "ASSAY METRIC": "pIC50", "ENDPOINT RESULT": 7.15}
{"COMPOUND": "Cc1cc2ccccc2c2nnc(NCCN3CCOCC3)cc12 [SR 96057 A, dihydrochloride]", "ASSAY METRIC": "pIC50", "ENDPOINT RESULT": 5.52}
{"COMPOUND": "CN(C)CCOc1cc2c(nn1)-c1ccccc1CC2.Cl [SR 95745 A, hydrochloride]", "ASSAY METRIC": "pIC50", "ENDPOINT RESULT": 5.41}
{"COMPOUND": "Cl.Cl.c1ccc2c(c1)ccc1cc(NCCN3CCOCC3)nnc12 [SR 95679 A, dihydrochloride]", "ASSAY METRIC": "pIC50", "ENDPOINT RESULT": 5.51}
{"COMPOUND": "CCN(CC)CCNc1cc2c(nn1)-c1cc(C)c(C)cc1CCC2.Cl.Cl [SR 44663 A, dihydrochloride]", "ASSAY METRIC": "pIC50", "ENDPOINT RESULT": 6.80}
{"COMPOUND": "CN1CCC(Nc2cc3c(nn2)-c2ccccc2CCC3)CC1 [SR 96093 A, dihydrochloride]", "ASSAY METRIC": "pIC50", "ENDPOINT RESULT": 5.92}
{"COMPOUND": "Cl.Cl.Fc1ccc2c(c1)CCCc1cc(NCCN3CCOCC3)nnc1-2 [SR 96108 A, dihydrochloride]", "ASSAY METRIC": "pIC50", "ENDPOINT RESULT": 6.00}
{"COMPOUND": "CCN(CC)CCNc1cc2c(nn1)-c1ccccc1CC2.Cl.Cl [SR 96054 A, dihydrochloride]", "ASSAY METRIC": "pIC50", "ENDPOINT RESULT": 6.68}
{"COMPOUND": "CCN(CC)CCNc1cc2c(nn1)-c1cc(C)c(C)cc1CCCC2.Cl.Cl [SR 44703 A, dihydrochloride]", "ASSAY METRIC": "pIC50", "ENDPOINT RESULT": 7.00}
{"COMPOUND": "CCN(CC)CCNc1cc2ccc3ccccc3c2nn1.Cl.Cl [SR 96055 A, dihydrochloride]", "ASSAY METRIC": "pIC50", "ENDPOINT RESULT": 6.49}
{"COMPOUND": "c1ccc2c(c1)CCCc1cc(NCCN3CCCCC3)nnc1-2 [SR 44694 A]", "ASSAY METRIC": "pIC50", "ENDPOINT RESULT": 6.82}
{"COMPOUND": "CCN(CC)CCNc1cc2c(nn1)-c1cc([N+](=O)[O-])ccc1CCC2.Cl.Cl [SR 95777 A, dihydrochloride]", "ASSAY METRIC": "pIC50", "ENDPOINT RESULT": 7.00}
